- TEST: chemical genetic growth profiling, strain panel (AID 1159580);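 also: tested at 20 µM; growth read once vehicle control cultures reached saturation at 30 °C; 1 = growth at the plate median or of vehicle wells; lower values mean less growth of the strain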
- TEST_PARAMETERS: S. cerevisiae deletion strains, growth OD, locus YDL192W, strain arf1, hits give low values
Screen size: about 5,500 compounds; about 2,000 (36%) were called active. Not shown: some 18% with an inconclusive outcome. Some of the results follow.
Give measured normalized growth for each item. Keep answers brief.
One number for each entry.

Recorded results for 5 compounds are shown here.
INSERT INTO measurements (compound, measurement_label, value) VALUES
  ('O=C1c2cccc(O)c2C(=O)c2c(O)cccc21', 'normalized growth', 0.628),
  ('O=C(CCc1ccc(O)cc1)c1c(O)cc(O)cc1O', 'normalized growth', 1.01),
  ('COc1ccc(NS(=O)(=O)c2ccc(N)cc2)nn1', 'normalized growth', 0.99),
  ('OC[C@H]1O[C@@H](Oc2ccc(O)cc2)[C@H](O)[C@@H](O)[C@@H]1O', 'normalized growth', 1.03),
  ('CC(C)C1CCC(C(=O)N[C@@H](Cc2ccccc2)C(=O)O)CC1 (stereo partly drawn)', 'normalized growth', 1.01);

List the reported normalized growth of each compound below.
1. O=C(/C=C/c1ccccc1)c1ccc(O[C@@H]2O[C@H](CO)[C@@H](O)[C@H](O)[C@H]2O)cc1O
2. COC(=O)C[C@H]1C(C)(C)[C@@H](OC(C)=O)[C@@H]2CC3=C4CC(=O)O[C@@H](c5ccoc5)[C@]4(C)CCC3[C@@]1(C)C2=O (stereo partly drawn)
3. CC1=C(C(=O)O)N2C(=O)[C@@H](NC(=O)[C@@H](N)c3ccc(O)cc3)[C@H]2SC1

0.829
0.998
0.971

====

- TEST: chemical genetic growth profiling, strain panel (AID 1159580);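 also: tested at 20 µM; growth read once vehicle control cultures reached saturation at 30 °C; 1 = growth at the plate median or of vehicle wells; lower values mean less growth of the strain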
- TEST_PARAMETERS: S. cerevisiae deletion strains, growth OD, locus YGL167C, strain pmr1, hits give low values
Screen size: about 5,500 compounds; about 2,000 (36%) were called active. Not shown: some 18% with an inconclusive outcome. The list shows a part of the results.
What normalized growth was measured for each of the following?

The cases that follow already have their normalized growth on record.
INSERT INTO measurements (molecule, value) VALUES
  ('CC(=O)O[C@@H]1C2CC[C@@H]3C1(C[C@@H](O)[C@@]1(O)[C@@H](C[C@H](O)C1(C)C)[C@]3(C)O)C[C@@]2(C)O (some centres undefined)', '0.998 (inactive)'),
  ('CC(=O)Oc1c(C)c(C)c2c(c1C)CCC(C)(CCCC(C)CCCC(C)CCCC(C)C)O2 (centres undefined)', '0.971 (inactive)'),
  ('CC(=O)OC1CCC2(O)CC1(C)CCC1C2CC1(C)C (centres undefined)', '1.02 (inactive)');

Now examine the next entry.
The molecule listed as `CC(=O)c1ccc[nH]1` has a reported normalized growth of 0.988 (inactive)

====

- TEST: chemical genetic growth profiling, strain panel (AID 1159580);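 also: tested at 20 µM; growth read once vehicle control cultures reached saturation at 30 °C; 1 = growth at the plate median or of vehicle wells; lower values mean less growth of the strain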
- TEST_PARAMETERS: S. cerevisiae deletion strains, growth OD, locus YOR265W, strain rbl2, hits give low values
Among all 5,500 compounds or so, about 2,000 (36%) were called active. About 18% were inconclusive and are not listed. Some of the results follow.
MEASUREMENT_LABEL: normalized growth
Give bare numbers.

Please review the entries below; each comes with its answer.
INSERT INTO assay_data (compound, measurement_label, value) VALUES
  ('COCC1=C(C(=O)OC(C)OC(=O)OC(C)C)N2C(=O)[C@@H](NC(=O)/C(=N\OC)c3csc(N)n3)[C@H]2SC1 (some centres not stated)', 'normalized growth', 0.982),
  ('O=C(/C=C/c1ccccc1)c1ccc(O)cc1O', 'normalized growth', 0.0582),
  ('O=C1NS(=O)(=O)c2ccccc21', 'normalized growth', 1.03),
  ('O=C(/C=C/c1ccc(O)cc1)c1ccccc1O', 'normalized growth', 0.584),
  ('O=c1c(O)c(-c2ccc(O)cc2)oc2ccccc12', 'normalized growth', 0.816);

Please give normalized growth, item by item, for the list that follows.
1. O=C(/C=C/c1ccccc1)c1ccc(O[C@@H]2O[C@H](CO)[C@@H](O)[C@H](O)[C@H]2O)cc1O
2. Cn1cnc2c1c(=O)[nH]c(=O)n2C
3. CC(C)N1C(=O)c2ccccc2NS1(=O)=O
4. Cn1c(=O)c2c(ncn2CCO)n(C)c1=O
5. COc1ccc(NS(=O)(=O)c2ccc(N)cc2)nn1

0.926
0.997
0.973
1.01
1

The reported measurements were obtained from PubChem BioAssay AID1159580.
